Procedure details: Toxicity liver stage against HepG2, at 10uM
Type: cell-based
Parameters: test concentration 10 uM, cell line HepG2-A16-CD81EGFP
Test conditions: human, HepG2-A16-CD81EGFP cells; read-out: INHIBITION
Parameter: cytotoxicity at 10 µM (%)
Your answer should be a plain number; it is taken to be in %.

// query Given CCc1nnc2n1CCN(C(=O)C(C)Oc1cccc(C#N)c1)C2 (stereo not given) , respond with its cytotoxicity at 10 µM.
// result 0.855

// query Given Cc1cc(-c2cnc(C)nc2CN(C)C(=O)c2cc(C3CC3)on2)on1 , respond with its cytotoxicity at 10 µM.
// result -20

// query Given Cc1nnc(N2CCCC3(CN(Cc4cccnc4)CCO3)C2)o1 (stereo not given) , respond with its cytotoxicity at 10 µM.
// result 4.96

// query Given c1ncn(CC2CCCCN2Cc2cn3ccsc3n2)n1 (stereo not given) , respond with its cytotoxicity at 10 µM.
// result -13.9

// query Given CC(c1cccc(-c2ncccc2F)c1)N(C)C (stereo not given) , respond with its cytotoxicity at 10 µM.
// result -19.4

// query Given COc1ccc(CCNC(=O)C2CC2)c(Cl)c1 , respond with its cytotoxicity at 10 µM.
// result -2.43

// query Given CC(=O)N[C@@H]1CN(Cc2nnc(-c3ccccc3)o2)C[C@H]1C(C)C , respond with its cytotoxicity at 10 µM.
// result -0.598

// query Given COC(C)(C)CC(C)NCc1cc(-c2ccco2)on1 (stereo not given) , respond with its cytotoxicity at 10 µM.
// result 1.81

// query Given Cc1ccc(CN2CCC3(CCC3NS(=O)(=O)c3ccccc3)CC2)o1 (stereo not given) , respond with its cytotoxicity at 10 µM.
// result -2.97

// query Given COc1cc(C)ccc1OCc1nc(C(=O)N2CCCNC(=O)C2)co1 , respond with its cytotoxicity at 10 µM.
// result -44.5

// query Given COCCC(=O)N1CCCC1c1nccnc1Nc1ncccn1 (stereo not given) , respond with its cytotoxicity at 10 µM.
// result -14.8

// query Given CCc1nc2n(n1)CC(NCC1=Cc3ccc(OC)cc3OC1)CC2 (stereo not given) , respond with its cytotoxicity at 10 µM.
// result 4.02

// query Given Cc1ccc(C(=O)N2CCO[C@H]3[C@@H](OCc4ccccn4)CC[C@@H]32)o1 , respond with its cytotoxicity at 10 µM.
// result -2.42

// query Given Cc1nn(C)c(C)c1C(C(=O)O)N1CCc2ccccc2C1 (stereo not given) , respond with its cytotoxicity at 10 µM.
// result -0.492

// query Given CCOC(=O)N1CCN(C(=O)c2cc(OCC)c3ccoc3c2)CC1 , respond with its cytotoxicity at 10 µM.
// result 41.5

// query Given Cc1ccc(C)c2c(O)cc(CNCCNC(=O)C(C)C)nc12 , respond with its cytotoxicity at 10 µM.
// result -8.14

// query Given CCCC(=O)Nc1cccc([C@H]2C[C@@H](NC(C)=O)CCO2)c1 , respond with its cytotoxicity at 10 µM.
// result 5.09

// query Given COc1c(NS(=O)(=O)c2cc(C)ccc2C)c(C)nn1C , respond with its cytotoxicity at 10 µM.
// result 0.259

// query Given CN1CCOC(C(=O)Nc2nc(-c3ccc4c(c3)CCC4)n[nH]2)C1 (stereo not given) , respond with its cytotoxicity at 10 µM.
// result -7.53

// query Given Cn1cccc1CN1CCC2(CCCN(C(=O)c3cnccn3)C2)C1 (stereo not given) , respond with its cytotoxicity at 10 µM.
// result -6.36

// query Given O=C1CSc2ccccc2N1Cc1noc(C2CCCO2)n1 (stereo not given) , respond with its cytotoxicity at 10 µM.
// result 8.35

// query Given COc1cccc(F)c1C(C)NC(=O)NCCc1ccc(C)nc1 (stereo not given) , respond with its cytotoxicity at 10 µM.
// result -2.13

// query Given O=C(CCn1cccc1)NCc1ccc(CN2CCCCCC2)o1 , respond with its cytotoxicity at 10 µM.
// result -5.2

// query Given COCCN1CC[C@H]2CN(Cc3ccc(C)s3)C[C@@H]2C1=O , respond with its cytotoxicity at 10 µM.
// result -3.72

// query Given COCCNC(=O)N1CCN(C(C)C(=O)NC(C)C)CC1 (stereo not given) , respond with its cytotoxicity at 10 µM.
// result 10.6
